Data origin: patent US5238825A

# Test system: cyclodextrinase (Lysinibacillus sphaericus, UniProt Q08341)
# Construct: is cultured in a medium to yield and accumulate said cyclodextrinase, and this enzyme is collected from the culture; made in house; host or cells: Bacillus sphaericus E-244 (FERM BP-2458), the natural wild-type producer strain; not recombinant
# Assay protocol: Reaction rate parameters of the present enzyme for cyclodextrins and maltooligosaccharides
# Type: biochemical, Bacillus sphaericus
# Condition description: Vmax/Km relative to β-cyclodextrin = 1.00
Assay metric: Relative value
Answers are plain numbers.

Determine its reported Relative value: OC[C@H]1O[C@H](O[C@H]2[C@H](O)[C@@H](O)[C@@H](O[C@H]3[C@H](O)[C@@H](O)[C@@H](O[C@H]4[C@H](O)[C@@H](O)[C@@H](O[C@H]5[C@H](O)[C@@H](O)[C@@H](O[C@H]6[C@H](O)[C@@H](O)[C@@H](O[C@H]7[C@H](O)[C@@H](O)C(O)O[C@@H]7CO)O[C@@H]6CO)O[C@@H]5CO)O[C@@H]4CO)O[C@@H]3CO)O[C@@H]2CO)[C@H](O)[C@@H](O)[C@@H]1O (stereo partly shown) [Maltoheptaose] 0.30

====

# Test system: cyclodextrinase (Lysinibacillus sphaericus, UniProt Q08341)
# Construct: is cultured in a medium to yield and accumulate said cyclodextrinase, and this enzyme is collected from the culture; made in house; host or cells: Bacillus sphaericus E-244 (FERM BP-2458), the natural wild-type producer strain; not recombinant
# Sequence (Q08341 1-591): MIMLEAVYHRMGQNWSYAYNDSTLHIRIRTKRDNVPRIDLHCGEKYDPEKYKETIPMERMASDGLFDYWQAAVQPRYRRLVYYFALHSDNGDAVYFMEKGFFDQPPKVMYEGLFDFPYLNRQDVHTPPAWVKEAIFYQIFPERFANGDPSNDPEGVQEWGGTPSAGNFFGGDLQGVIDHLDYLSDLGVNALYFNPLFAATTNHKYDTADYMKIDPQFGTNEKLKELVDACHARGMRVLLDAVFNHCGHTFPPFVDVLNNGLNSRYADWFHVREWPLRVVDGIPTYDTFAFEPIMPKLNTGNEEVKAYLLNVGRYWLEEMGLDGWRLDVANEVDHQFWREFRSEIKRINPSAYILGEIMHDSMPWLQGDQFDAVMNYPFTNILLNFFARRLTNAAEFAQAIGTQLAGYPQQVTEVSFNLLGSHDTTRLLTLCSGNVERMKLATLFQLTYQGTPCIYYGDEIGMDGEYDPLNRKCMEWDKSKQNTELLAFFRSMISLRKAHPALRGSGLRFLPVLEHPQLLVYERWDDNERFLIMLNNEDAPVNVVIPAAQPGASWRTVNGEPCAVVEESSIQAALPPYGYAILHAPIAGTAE
# Assay protocol: Reaction rate parameters of the present enzyme for cyclodextrins and maltooligosaccharides
# Assay type: biochemical, Bacillus sphaericus
# Set-up: unit not given here
# Description: When the amount of the enzyme was small, the reducing power of the enzyme was determined according to Nelson-Somogyi's method, with glucose as standard.
Assay metric: Vmax

Worked cases, answers included:
OC[C@H]1O[C@H](O[C@H]2[C@H](O)[C@@H](O)[C@@H](O[C@H]3[C@H](O)[C@@H](O)[C@@H](O[C@H]4[C@H](O)[C@@H](O)[C@@H](O[C@H]5[C@H](O)[C@@H](O)[C@@H](O[C@H]6[C@H](O)[C@@H](O)[C@@H](O[C@H]7[C@H](O)[C@@H](O)C(O)O[C@@H]7CO)O[C@@H]6CO)O[C@@H]5CO)O[C@@H]4CO)O[C@@H]3CO)O[C@@H]2CO)[C@H](O)[C@@H](O)[C@@H]1O (stereo partly shown) = 0.060
OC[C@H]1O[C@H](O[C@H]2[C@H](O)[C@@H](O)[C@@H](O[C@H]3[C@H](O)[C@@H](O)[C@@H](O[C@H]4[C@H](O)[C@@H](O)[C@@H](O[C@H]5[C@H](O)[C@@H](O)[C@@H](O[C@H]6[C@H](O)[C@@H](O)C(O)O[C@@H]6CO)O[C@@H]5CO)O[C@@H]4CO)O[C@@H]3CO)O[C@@H]2CO)[C@H](O)[C@@H](O)[C@@H]1O (stereo partly shown) = 0.075
OC[C@H]1O[C@@H]2O[C@H]3[C@H](O)[C@@H](O)[C@@H](O[C@H]4[C@H](O)[C@@H](O)[C@@H](O[C@H]5[C@H](O)[C@@H](O)[C@@H](O[C@H]6[C@H](O)[C@@H](O)[C@@H](O[C@H]7[C@H](O)[C@@H](O)[C@@H](O[C@H]8[C@H](O)[C@@H](O)[C@@H](O[C@H]1[C@H](O)[C@H]2O)O[C@@H]8CO)O[C@@H]7CO)O[C@@H]6CO)O[C@@H]5CO)O[C@@H]4CO)O[C@@H]3CO = 0.110

Need Vmax for each of these molecules.
1. OC[C@H]1O[C@@H]2O[C@H]3[C@H](O)[C@@H](O)[C@@H](O[C@H]4[C@H](O)[C@@H](O)[C@@H](O[C@H]5[C@H](O)[C@@H](O)[C@@H](O[C@H]6[C@H](O)[C@@H](O)[C@@H](O[C@H]7[C@H](O)[C@@H](O)[C@@H](O[C@H]8[C@H](O)[C@@H](O)[C@@H](O[C@H]9[C@H](O)[C@@H](O)[C@@H](O[C@H]1[C@H](O)[C@H]2O)O[C@@H]9CO)O[C@@H]8CO)O[C@@H]7CO)O[C@@H]6CO)O[C@@H]5CO)O[C@@H]4CO)O[C@@H]3CO
2. OC[C@H]1O[C@@H]2O[C@H]3[C@H](O)[C@@H](O)[C@@H](O[C@H]4[C@H](O)[C@@H](O)[C@@H](O[C@H]5[C@H](O)[C@@H](O)[C@@H](O[C@H]6[C@H](O)[C@@H](O)[C@@H](O[C@H]7[C@H](O)[C@@H](O)[C@@H](O[C@H]1[C@H](O)[C@H]2O)O[C@@H]7CO)O[C@@H]6CO)O[C@@H]5CO)O[C@@H]4CO)O[C@@H]3CO
3. OC[C@H]1O[C@H](O[C@H]2[C@H](O)[C@@H](O)[C@@H](O[C@H]3[C@H](O)[C@@H](O)[C@@H](O[C@H]4[C@H](O)[C@@H](O)C(O)O[C@@H]4CO)O[C@@H]3CO)O[C@@H]2CO)[C@H](O)[C@@H](O)[C@@H]1O (stereo partly shown)
4. OC[C@H]1O[C@H](O[C@H]2[C@H](O)[C@@H](O)[C@@H](O[C@H]3[C@H](O)[C@@H](O)[C@@H](O[C@H]4[C@H](O)[C@@H](O)[C@@H](O[C@H]5[C@H](O)[C@@H](O)C(O)O[C@@H]5CO)O[C@@H]4CO)O[C@@H]3CO)O[C@@H]2CO)[C@H](O)[C@@H](O)[C@@H]1O (stereo partly shown)

[0.039, 0.074, 0.067, 0.073]

====

Assign Relative value to each entry below.
# Test system: cyclodextrinase (Lysinibacillus sphaericus, UniProt Q08341)
# Construct: is cultured in a medium to yield and accumulate said cyclodextrinase, and this enzyme is collected from the culture; made in house; host or cells: Bacillus sphaericus E-244 (FERM BP-2458), the natural wild-type producer strain; not recombinant
# Assay protocol: Reaction rate parameters of the present enzyme for cyclodextrins and maltooligosaccharides
# Format: biochemical, Bacillus sphaericus
# Condition description: Vmax/Km relative to β-cyclodextrin = 1.00
Numbers only.

Worked cases, answers included:
OC[C@H]1O[C@@H]2O[C@H]3[C@H](O)[C@@H](O)[C@@H](O[C@H]4[C@H](O)[C@@H](O)[C@@H](O[C@H]5[C@H](O)[C@@H](O)[C@@H](O[C@H]6[C@H](O)[C@@H](O)[C@@H](O[C@H]7[C@H](O)[C@@H](O)[C@@H](O[C@H]8[C@H](O)[C@@H](O)[C@@H](O[C@H]9[C@H](O)[C@@H](O)[C@@H](O[C@H]1[C@H](O)[C@H]2O)O[C@@H]9CO)O[C@@H]8CO)O[C@@H]7CO)O[C@@H]6CO)O[C@@H]5CO)O[C@@H]4CO)O[C@@H]3CO = 0.09
OC[C@H]1O[C@@H]2O[C@H]3[C@H](O)[C@@H](O)[C@@H](O[C@H]4[C@H](O)[C@@H](O)[C@@H](O[C@H]5[C@H](O)[C@@H](O)[C@@H](O[C@H]6[C@H](O)[C@@H](O)[C@@H](O[C@H]7[C@H](O)[C@@H](O)[C@@H](O[C@H]8[C@H](O)[C@@H](O)[C@@H](O[C@H]1[C@H](O)[C@H]2O)O[C@@H]8CO)O[C@@H]7CO)O[C@@H]6CO)O[C@@H]5CO)O[C@@H]4CO)O[C@@H]3CO = 1.00
OC[C@H]1O[C@H](O[C@H]2[C@H](O)[C@@H](O)[C@@H](O[C@H]3[C@H](O)[C@@H](O)[C@@H](O[C@H]4[C@H](O)[C@@H](O)C(O)O[C@@H]4CO)O[C@@H]3CO)O[C@@H]2CO)[C@H](O)[C@@H](O)[C@@H]1O (stereo partly shown) = 0.15

Moving on to another compound below.
Determine its reported Relative value: OC[C@H]1O[C@H](O[C@H]2[C@H](O)[C@@H](O)[C@@H](O[C@H]3[C@H](O)[C@@H](O)[C@@H](O[C@H]4[C@H](O)[C@@H](O)[C@@H](O[C@H]5[C@H](O)[C@@H](O)C(O)O[C@@H]5CO)O[C@@H]4CO)O[C@@H]3CO)O[C@@H]2CO)[C@H](O)[C@@H](O)[C@@H]1O (stereo partly shown) 0.27
